- Method Summary: self-splicing fitness, log relative to wild type (ln ratio); higher = more splicing; Tetrahymena group I intron in knt gene, E. coli kanamycin selection, DiMSum; sequences stand for … in CUCUCU…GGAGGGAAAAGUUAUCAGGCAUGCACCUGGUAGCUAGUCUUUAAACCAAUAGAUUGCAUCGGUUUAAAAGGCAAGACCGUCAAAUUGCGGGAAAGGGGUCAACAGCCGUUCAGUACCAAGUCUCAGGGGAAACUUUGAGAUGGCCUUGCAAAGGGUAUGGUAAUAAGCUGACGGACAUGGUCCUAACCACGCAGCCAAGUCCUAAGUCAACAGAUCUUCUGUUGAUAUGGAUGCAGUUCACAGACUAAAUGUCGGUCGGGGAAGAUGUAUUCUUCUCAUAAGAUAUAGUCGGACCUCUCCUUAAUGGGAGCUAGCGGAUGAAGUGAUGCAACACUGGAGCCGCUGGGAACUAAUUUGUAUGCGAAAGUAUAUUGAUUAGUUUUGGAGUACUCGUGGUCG;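 also: selection with 25 µg/mL kanamycin versus none on LB agar overnight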
- Condition Notes: 30 °C
Each entry gets no if its self-splicing fitness (ln) stays under -2, and yes if its self-splicing fitness (ln) is -2 or above.

// below: answered sequences
> print(dat)
        sequence.string  cat
1  UAGGAGCAAUAUUACGCGUC   no
2  CCGAAGCAAUAUUACGUCUG  yes
3  CGCAAGCAAUAUUACGGACA  yes

[in] Given "AGGUAGCAAUAUUACGCAGG" , state whether its self-splicing fitness (ln) is at least -2.
[out] no

[in] Given "UCACAGCAAUAUUACGCGUG" , state whether its self-splicing fitness (ln) is at least -2.
[out] no

[in] Given "GUAUAGCAAUAUUACGACCG" , state whether its self-splicing fitness (ln) is at least -2.
[out] no

[in] Given "UUGAAGCAAUAUUACGACUA" , state whether its self-splicing fitness (ln) is at least -2.
[out] yes

* * *

- Method Summary: self-splicing fitness, log relative to wild type (ln ratio); higher = more splicing; Tetrahymena group I intron in knt gene, E. coli kanamycin selection, DiMSum; sequences stand for … in CUCUCU…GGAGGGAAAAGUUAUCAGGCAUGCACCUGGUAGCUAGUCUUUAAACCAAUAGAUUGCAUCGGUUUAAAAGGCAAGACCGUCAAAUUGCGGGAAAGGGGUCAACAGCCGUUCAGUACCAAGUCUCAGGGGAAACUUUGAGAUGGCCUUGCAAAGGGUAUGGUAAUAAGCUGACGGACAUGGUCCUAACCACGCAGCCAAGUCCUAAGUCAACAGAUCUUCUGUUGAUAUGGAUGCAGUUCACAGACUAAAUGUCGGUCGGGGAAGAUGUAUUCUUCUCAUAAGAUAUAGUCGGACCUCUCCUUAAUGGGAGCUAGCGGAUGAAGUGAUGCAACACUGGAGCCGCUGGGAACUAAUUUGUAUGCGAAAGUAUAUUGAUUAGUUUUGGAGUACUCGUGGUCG
- Condition Notes: 37 °C
This section presents sequences with their documented self-splicing fitness (ln) values.
Give the value as a plain number.

> print(dat)
        sequence.string              endpoint.label  result
1  GCUGAGCAAUAUUACGCAAA  self-splicing fitness (ln)   -1.55

[in] I have this sequence here, "AAAUAGCAAUAUUACGGACG" , and I need its recorded self-splicing fitness (ln).
[out] -0.343

[in] I have this sequence here, "CCAUAGCAAUAUUACGAAGG" , and I need its recorded self-splicing fitness (ln).
[out] -2.87

[in] I have this sequence here, "CGUGAGCAAUAUUACGCAGG" , and I need its recorded self-splicing fitness (ln).
[out] -2.14

[in] I have this sequence here, "GGCCAGCAAUAUUACGGAUU" , and I need its recorded self-splicing fitness (ln).
[out] -0.524

[in] I have this sequence here, "CUACAGCAAUAUUACGAGGU" , and I need its recorded self-splicing fitness (ln).
[out] -3.03
